System: M14 melanoma
Assay: NCI tumour cell line growth inhibition, 48 h
QUANTITY_KIND: TGI

Exercise: Give recorded TGI. CC(O)C1OC(O)C2OC(C)(C)OC12 (stereo not drawn)
Key: > 100 µM

Exercise: Tell me measured TGI for CC(Cn1c2c3ccccc3ccc2c2oc(=O)c3ccccc3c21)N(C)C (stereo not drawn) please.
Key: > 100 µM

Exercise: Tell us which TGI value is on record for COC(=O)C1(C)C=C(Nc2ccccc2)C(=O)N1c1ccccc1 (stereo not drawn)
Key: > 100 µM

Exercise: Entry COc1ccc2[nH]cc(CCNC(C)=O)c2c1 needs its TGI filled in; supply it.
Key: > 100 µM

Exercise: Query TGI for Cc1ccccc1NC(=O)NC(Oc1ccccc1)(C(F)(F)F)C(F)(F)F
Key: > 100 µM

Exercise: Retrieve TGI measured for O=C(Nc1ccc(S(=O)(=O)Nc2nccs2)cc1)c1cccnc1Nc1cccc(Cl)c1 and print it.
Key: 34.9 µM

Exercise: Please supply the value of reported TGI for the item CCc1ccc(-c2nnc(COc3ccc(-c4nc5ccc(C)cc5[nH]4)cc3OC)o2)cc1
Key: 5.84 µM

Exercise: Tell us which TGI value is on record for CC(=O)N1CCC2(C=Nc3ccccc32)CC1
Key: > 100 µM

Exercise: Output TGI of c1ccc(COc2ccc(CC3SCCCS3)cc2)cc1
Key: > 100 µM

Exercise: Item CN(C)c1nc(N(C)C)nc(N(C)C)n1 : provide TGI
Key: > 150 µM

Exercise: Determine from records and report TGI for CC(C)(C)OC(=O)[N+](=N)C(=O)C1CCC(=O)N1C(=O)OCc1ccccc1 (stereo not drawn)
Key: > 100 µM

Exercise: Quote TGI reported for C=C1C(=O)O[C@@H]2C[C@@H]1CC[C@]1(C)O[C@H]1CC[C@@]1(C)O[C@@H]1CC[C@@]2(C)O please.
Key: > 100 µM

Exercise: Tell us which TGI value is on record for CC(=O)Nc1ccc(/C=C(\NC(=O)c2ccccc2)c2nc3ccc4c(c3[nH]2)C(=O)c2ccccc2C4=O)cc1
Key: > 100 µM

Exercise: Supply reported TGI belonging to this compound: COc1nc2c(OC)cccc2c(OC)c1C=O
Key: > 100 µM

Exercise: Give reported TGI value for CNc1ccccc1C(=O)N/N=C/C=C/c1ccccc1
Key: 24.8 µM

Exercise: Check the records and state TGI for O=C1/C(=C/c2cccc([N+](=O)[O-])c2)COc2ccc(O)c(O)c21
Key: 4.27 µM

Exercise: Given CSC1=N/C(=C\c2ccc(C)cc2)C(=O)N1CN1CCOCC1 , respond with its TGI.
Key: > 100 µM

Exercise: Identify TGI associated with the compound OC1(c2ccccc2)CC2CCC(C1)N2CCc1ccccc1 (stereo not drawn)
Key: > 100 µM

Exercise: Quickly give me recorded TGI for CC1=C(/C=C/C(C)=C/C=C/C(C)=C/C(=O)OCC2OC(n3cc(F)c(=O)[nH]c3=O)CC2OC(=O)/C=C(C)/C=C/C=C(C)/C=C/C2=C(C)CCCC2(C)C)C(C)(C)CCC1 (stereo not drawn)
Key: > 48.3 µM

Exercise: Look up and report measured TGI for this entry: Cc1ccc(NC(c2ccccc2)c2ccc3cccnc3c2O)cc1 (stereo not drawn)
Key: 19 µM

Exercise: Fill in TGI for record CC/C(=N\NC(=O)c1cccnc1)c1ccc2c(c1)OCCO2
Key: > 100 µM

Exercise: Tell us which TGI value is on record for S=c1ssc2c3ssc(=S)c3n(Cc3ccccc3)c12
Key: > 100 µM

Exercise: For the compound CSC(=S)c1ccc(C(=S)SC)cc1 , give its measured TGI value.
Key: > 100 µM
